system: PC-3; assay: Anticancer activity against human PC-3 cells assessed as cell growth inhibition incubated for 72 hrs by SRB assay; assay type: functional, cell-based; details: Homo sapiens, PC-3, 72 h
Entries annotated with measured pIC50
Remember, pIC50 is on a log scale: it is -log10 of the molar concentration.

Example entries and their recorded answers appear below.
• CO[C@H]1/C=C\C=C(/C)C(=O)NC2=CC(=O)C(NCc3cn(Cc4ccccc4I)nn3)=C(C[C@@H](C)C[C@H](OC)[C@H](O)[C@@H](C)/C=C(\C)[C@@H]1OC(N)=O)C2=O = 6.39
• CO[C@H]1/C=C\C=C(/C)C(=O)NC2=CC(=O)C(NCc3cn([C@@H]4OC[C@@H](OC(C)=O)[C@H](OC(C)=O)[C@H]4OC(C)=O)nn3)=C(C[C@@H](C)C[C@H](OC)[C@H](O)[C@@H](C)/C=C(\C)[C@@H]1OC(N)=O)C2=O = 5.45

Attention now turns to another entry.
GET /value?item= CO[C@H]1/C=C\C=C(/C)C(=O)NC2=CC(=O)C(NCc3cn(CCN4C(=O)c5ccccc5C4=O)nn3)=C(C[C@@H](C)C[C@H](OC)[C@H](O)[C@@H](C)/C=C(\C)[C@@H]1OC(N)=O)C2=O &field=pIC50 returns 5.89
